- Procedure text: small-molecule microarray binders of probe aCHRDL2, primary screen, biochemical, biotinylated probe, 635/667 nm fluorescence (AID 1100)
- Condition context: higher = more signal
Reported property: composite z-score

COC(=O)[C@@]1(Cc2ccccc2N=[N+]=[N-])COC(c2ccc(OCCCO)cc2)=N1
1.26
O=C(CS)NCCCCCCNC(=O)[C@H]1C[C@H]2C(=O)N3CCC[C@H]3C(=O)N2[C@H]1c1cccc(OCCO)c1
-0.109
Cc1ccc(S[C@]2(C(=O)NCCN3CCOCC3)CC(=O)N(Cc3cc(C(F)(F)F)cc(C(F)(F)F)c3)[C@@H]2c2ccc(CO)cc2I)cc1
0.868
O=C(O)[C@@]1(Cc2ccccc2)N=C(c2ccc(OCCCO)cc2)O[C@H]1c1ccccc1
0.614
C=CCC(OC(C)=O)[C@@H]1[C@@H](N(Cc2ccc(-c3cccc(C(F)(F)F)c3)o2)C(=O)c2ccc(C)cc2)c2cc(OCCCO)ccc2N1C(=O)c1ccc(-c2ccccc2)cc1 (some centres not stated)
0.0823
CC(C)c1ccc(NN2C(C(O)c3cccc(O)c3)C=CC3C(=O)N(c4ccccc4)C(=O)C32)cc1 (configuration not stated)
0.835
O=C(NCc1ccccc1)[C@]1(CCS(=O)(=O)c2ccccc2)N=C(c2ccc(OCCCO)cc2)O[C@@H]1c1ccccc1
0.264
